Where do the numbers come from? From paper PMC10731632.

# PROCEDURE_DETAILS: Acidity constants (pKa) of the free ligands by pH-potentiometric titration
# Assay type: physicochemical
# CONDITION_INFO: water, pH potentiometry, T = 25 °C, I = 0.15 M NaNO3; read-out: pKa, H2L^2+ ⇌ H^+ + HL^+
EXPERIMENTAL_READOUT: pKa

Qu. Answer with the recorded pKa of CCCCN1CCN(CCCC)CCN(CCCC)CC1 only.
Ans. 5
